- TARGET_OR_TEST_SYSTEM: recombinant Fyn (Homo sapiens, UniProt P06241)
- Sequence (P06241 whole entry, looked up): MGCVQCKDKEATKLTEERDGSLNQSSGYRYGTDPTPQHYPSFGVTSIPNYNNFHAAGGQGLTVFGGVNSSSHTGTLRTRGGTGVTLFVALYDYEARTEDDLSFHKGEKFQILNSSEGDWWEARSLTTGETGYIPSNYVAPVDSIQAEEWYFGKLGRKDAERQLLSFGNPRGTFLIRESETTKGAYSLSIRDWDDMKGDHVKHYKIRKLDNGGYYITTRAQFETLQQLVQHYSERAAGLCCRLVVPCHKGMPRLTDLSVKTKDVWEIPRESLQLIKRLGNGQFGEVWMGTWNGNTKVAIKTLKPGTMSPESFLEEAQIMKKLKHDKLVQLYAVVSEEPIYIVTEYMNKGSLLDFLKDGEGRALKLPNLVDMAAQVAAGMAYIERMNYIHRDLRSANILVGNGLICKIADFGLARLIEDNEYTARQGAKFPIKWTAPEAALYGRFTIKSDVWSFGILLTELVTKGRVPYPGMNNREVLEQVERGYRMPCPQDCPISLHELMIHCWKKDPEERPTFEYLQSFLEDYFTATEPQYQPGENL
- PROCEDURE_SUMMARY: Enzymatic assay on isolated Fyn kinase
For each of the compounds below, state its Ki.

Exam item: Suppose we examine the compound Nc1ncnc2c1c(-c1ccc(Cl)cc1)nn2CC(Cl)c1ccccc1 (stereo not shown) ; what Ki value has been reported?
Marked response: 0.095 µM

Exam item: Then this compound: Fc1ccc(CNc2nc(SCCN3CCOCC3)nc3c2cnn3CC(Cl)c2ccccc2)cc1 (stereo not shown)
Marked response: 7.5 to 16 µM

Exam item: Entry to check: Clc1cccc(Nc2nc(SC3CCCC3)nc3c2cnn3CC(Cl)c2ccccc2)c1 (stereo not shown)
Marked response: > 100 µM

Exam item: Let us now turn to ClC(Cn1ncc2c(NCCc3ccccc3)nc(SCCN3CCOCC3)nc21)c1ccccc1 (stereo not shown)
Marked response: > 100 µM

Exam item: Please do the same for ClC(Cn1ncc2c(NCc3ccccc3)nc(Cc3ccccc3)nc21)c1ccccc1 (stereo not shown) as well.
Marked response: 7.5 to 16 µM

Exam item: Queued: CNc1nc(SC)nc2c1c(-c1ccccc1)nn2CCc1ccccc1
Marked response: > 10 µM

Exam item: Field entry: COC(Cn1nc(-c2ccccc2)c2c(N)nc(SC)nc21)c1ccccc1 (stereo not shown)
Marked response: > 10 µM

Exam item: Further, for CCCNc1nc(SCCN2CCOCC2)nc2c1cnn2CC(Cl)c1ccccc1 (stereo not shown) ?
Marked response: 7.5 to 16 µM

Exam item: Then this compound: CCC(C)Sc1nc(NCc2ccccc2)c2cnn(CC(Cl)c3ccccc3)c2n1 (stereo not shown) [drawing 195]
Marked response: > 100 µM

Exam item: Similarly, CCC(C)Sc1nc(NCCc2ccccc2)c2cnn(CC(Cl)c3ccccc3)c2n1 (stereo not shown) [drawing 196] ?
Marked response: > 100 µM

Exam item: For CC(Cn1nc(-c2ccc(Cl)cc2)c2c(N)ncnc21)c1ccccc1 (stereo not shown) then?
Marked response: 0.78 µM

Exam item: Also CSc1nc(NCCc2cccc(Cl)c2)c2cnn(/C=C/c3ccccc3)c2n1 ?
Marked response: 7.5 to 16 µM

Exam item: Fc1cccc(Nc2nc(SC3CCCC3)nc3c2cnn3CC(Cl)c2ccccc2)c1 (stereo not shown) [drawing 191, reference compound] ?
Marked response: > 100 µM

Exam item: Also check CC(=O)c1ccc(-c2nn(CC(C)c3ccccc3)c3ncnc(N)c23)cc1 (stereo not shown) [drawing 206]
Marked response: > 10 µM

Exam item: Input CCCCSc1nc(NCCc2ccccc2)c2cnn(CC(Cl)c3ccccc3)c2n1 (stereo not shown)
Marked response: > 100 µM

Exam item: # repeat for ClC(Cn1ncc2c(NCCc3ccccc3)nc(SC3CCCC3)nc21)c1ccccc1 (stereo not shown)
Marked response: > 100 µM

----------
- PROCEDURE_SUMMARY: Microsomal stability assay
- MEASUREMENT_PARAMETERS: percentage of unmodified parent drug, human liver microsomes 60 min
MEASUREMENT_TYPE: Metabolic Stab. (%)
Answer with a number only, understood to be in %.

Exam item: What does the data say about its Metabolic Stab.? Entry: Cl.Oc1cccc(Nc2nc(SCCN3CCOCC3)nc3c2cnn3CCc2ccccc2)c1
Marked response: 97

Exam item: Please answer likewise for CCSc1nc(Nc2cccc(F)c2)c2cnn(CC(C)c3ccccc3)c2n1 (stereo not drawn)
Marked response: 94

Exam item: Another: CC(Cn1ncc2c(Nc3cccc(O)c3)nc(SCCN3CCOCC3)nc21)c1ccccc1.Cl (stereo not drawn)
Marked response: 99

Exam item: Here is the next molecule: Clc1cccc(Nc2nc(SCCN3CCOCC3)nc3c2cnn3CC(Cl)c2ccccc2)c1 (stereo not drawn) [Si181, reference compound]
Marked response: 95

Exam item: And for CSc1nc(Nc2cccc(O)c2)c2cnn(CC(Cl)c3ccccc3)c2n1 (stereo not drawn) ?
Marked response: 98

Exam item: Repeat with ClC(Cn1ncc2c(Nc3ccccc3)nc(SC3CCCC3)nc21)c1ccccc1 (stereo not drawn)
Marked response: 94

Exam item: Also Fc1ccc(CCn2ncc3c(Nc4cccc(Cl)c4)nc(SCCN4CCOCC4)nc32)cc1 [drawing 171] ?
Marked response: 97

Exam item: Subsequent entry: ClC(Cn1ncc2c(Nc3cccc(Br)c3)nc(SCCN3CCOCC3)nc21)c1ccccc1 (stereo not drawn)
Marked response: 96

Exam item: CC(C)Sc1nc(Nc2cccc(O)c2)c2cnn(CC(Cl)c3ccccc3)c2n1 (stereo not drawn) ?
Marked response: 95

----------
- PROCEDURE_SUMMARY: PAMPA, intestinal (GI) permeability
- MEASUREMENT_PARAMETERS: PAMPA, Table 6
Please provide measured Papp for the entries that follow.

Exam item: Can you look up the measured Papp of CC(Cn1ncc2c(Nc3cccc(Cl)c3)nc(SCCN3CCOCC3)nc21)c1ccccc1 (stereo not drawn) for me?
Marked response: 5.51 10^−6 cm/sec

Exam item: Then what about the compound ClC(Cn1ncc2c(Nc3ccccc3)nc(SC3CCCC3)nc21)c1ccccc1 (stereo not drawn) ?
Marked response: 13 10^−6 cm/sec

Exam item: Can you handle CSc1nc(Nc2cccc(O)c2)c2cnn(CCc3ccccc3)c2n1 next?
Marked response: 5.24 10^−6 cm/sec

Exam item: Param item: CC(C)Sc1nc(Nc2cccc(O)c2)c2cnn(CC(Cl)c3ccccc3)c2n1 (stereo not drawn) [Si323]
Marked response: 4.53 10^−6 cm/sec

Exam item: // same read-out, input: CCSc1nc(Nc2cccc(Br)c2)c2cnn(CC(C)c3ccccc3)c2n1 (stereo not drawn)
Marked response: 2.03 10^−6 cm/sec

Exam item: Please answer likewise for CCSc1nc(Nc2cccc(O)c2)c2cnn(CC(C)c3ccccc3)c2n1 (stereo not drawn)
Marked response: 4.91 10^−6 cm/sec

Exam item: Same thing, different compound: CC(Cn1ncc2c(Nc3cccc(O)c3)nc(SCCN3CCOCC3)nc21)c1ccccc1.Cl (stereo not drawn) [Si329]
Marked response: 6.81 10^−6 cm/sec

Exam item: Similarly, CCSc1nc(Nc2cccc(F)c2)c2cnn(CC(C)c3ccccc3)c2n1 (stereo not drawn) ?
Marked response: 1.72 10^−6 cm/sec

Exam item: Request: CSc1nc(Nc2cccc(O)c2)c2cnn(CC(Cl)c3ccccc3)c2n1 (stereo not drawn) [Si322]
Marked response: 5.92 10^−6 cm/sec

Exam item: Let us now turn to CSc1nc(Nc2cccc(Br)c2)c2cnn(CCc3ccccc3)c2n1
Marked response: 3.26 10^−6 cm/sec

Exam item: Record: CSc1nc(Nc2cccc(F)c2)c2cnn(CCc3ccccc3)c2n1
Marked response: 9.33 10^−6 cm/sec

Exam item: // query: CCSc1nc(Nc2cccc(Cl)c2)c2cnn(CC(C)c3ccccc3)c2n1 (stereo not drawn)
Marked response: 3.81 10^−6 cm/sec

Exam item: Also, Oc1cccc(Nc2nc(SC3CCCC3)nc3c2cnn3CC(Cl)c2ccccc2)c1 (stereo not drawn) [Si330] please.
Marked response: 3.91 10^−6 cm/sec

Exam item: Now this one: CCCCSc1nc(Nc2cccc(O)c2)c2cnn(CC(Cl)c3ccccc3)c2n1 (stereo not drawn)
Marked response: 3.43 10^−6 cm/sec

Exam item: Similarly, CC(Cn1ncc2c(Nc3ccccc3)nc(SCCN3CCOCC3)nc21)c1ccccc1 (stereo not drawn) ?
Marked response: 3.66 10^−6 cm/sec

Exam item: What would you report for CSc1nc(Nc2ccccc2)c2cnn(CCc3ccccc3)c2n1 ?
Marked response: 7.60 10^−6 cm/sec

Exam item: Item: Clc1cccc(Nc2nc(SCCN3CCOCC3)nc3c2cnn3CC(Cl)c2ccccc2)c1 (stereo not drawn) [Si181, reference compound]
Marked response: 9.5 10^−6 cm/sec

Exam item: Now the same for Fc1cccc(Nc2nc(SC3CCCC3)nc3c2cnn3CC(Cl)c2ccccc2)c1 (stereo not drawn) [drawing 179]
Marked response: 14 10^−6 cm/sec

Exam item: Try the compound CC(Cn1ncc2c(Nc3cccc(F)c3)nc(SCCN3CCOCC3)nc21)c1ccccc1 (stereo not drawn)
Marked response: 6.51 10^−6 cm/sec

Exam item: Next: Clc1cccc(Nc2nc(SCCN3CCOCC3)nc3c2cnn3CCc2ccccc2)c1
Marked response: 3.50 10^−6 cm/sec

Exam item: // repeat for Cl.Oc1cccc(Nc2nc(SCCN3CCOCC3)nc3c2cnn3CCc2ccccc2)c1 [Si332] and report
Marked response: 6.38 10^−6 cm/sec

----------
I'd appreciate it if you could supply melting point values for the items below.
Structures can show the parent of a compound that is named as a salt.

Exam item: Which melting point is listed for CCC(C)Sc1nc(NCCc2ccccc2)c2cnn(CC(Cl)c3ccccc3)c2n1 (stereo not drawn) ?
Marked response: 97 to 98 °C

Exam item: Would you mind doing CC(Cn1nc(-c2ccccc2)c2c(N)ncnc21)c1ccccc1 (stereo not drawn) as well?
Marked response: 105 to 109 °C

Exam item: Field entry: CCC(C)Sc1nc(NCc2ccccc2)c2cnn(CC(Cl)c3ccccc3)c2n1 (stereo not drawn)
Marked response: 112 to 113 °C

Exam item: One more compound: Cc1ccc(-c2nn(CC(C)c3ccccc3)c3ncnc(N)c23)cc1 (stereo not drawn)
Marked response: 152 to 155 °C

Exam item: One more compound: Fc1ccc(CCn2ncc3c(Nc4cccc(Cl)c4)nc(SCCN4CCOCC4)nc32)cc1
Marked response: 127 to 128 °C

Exam item: Subsequent entry: Nc1ncnc2c1c(-c1ccccc1)nn2CC(Cl)c1ccccc1 (stereo not drawn) (as salt: hydrochloride)
Marked response: 129 to 132 °C

Exam item: Further, for Nc1ncnc2c1c(-c1ccc(F)cc1)nn2CC(Cl)c1ccccc1 (stereo not drawn) ?
Marked response: 203 to 206 °C

Exam item: Could you do the same for CC(=O)c1ccc(-c2nn(CC(C)c3ccccc3)c3ncnc(N)c23)cc1 (stereo not drawn) , please?
Marked response: 232 to 235 °C

Exam item: Entry Nc1ncnc2c1c(-c1ccc(Cl)cc1)nn2CC(Cl)c1ccccc1 (stereo not drawn) please
Marked response: 150 to 151 °C
